- experimentalProtocol: MRT (0 to infinity) in Sprague-Dawley rat plasma at 10 mg/kg, ip after 0.25 to 4 hrs by LC-MS/MS analysis
- Assay type: ADME, organism-based
- measurementParameters: time 0.25-4 hrs
testReadout: MRT inf (min)
// return numeric value only (unit: min, not printed)

Problem: Tell us which MRT inf value is on record for `Cn1nc(CN2CCCC2)nc1-c1ccc(C(C)(C)C)cc1`
Result: 43.8

====

- experimentalProtocol: Displacement of [3H]-DTG from sigma-2 receptor in guinea pig brain membrane incubated for 1 hr by liquid scintillation counting method
- Type: cell membranes, Cavia porcellus
Documented Ki across a set of compounds
// return numeric value only (unit: nM, not printed)

Below, 3 compounds whose answers are already recorded.
Cn1nc(CN2CCCCC2)nc1-c1ccc(C(C)(C)C)cc1 ... 441
CN(Cc1nc(-c2ccc(C(C)(C)C)cc2)n(C)n1)CC1CC1 ... 324
Cn1nc(CN2CCCC2)nc1-c1ccc(C(C)(C)C)cc1 ... 474

Attention now shifts to the item below.
Problem: Tell us which Ki value is on record for `O=C(CCCN1CCC(O)(c2ccc(Cl)cc2)CC1)c1ccc(F)cc1`
Result: 4.7

====

Documented log10 Ki across a set of compounds
- target: Sigma non-opioid intracellular receptor 1 (Homo sapiens)
- Sequence (Q99720 whole entry): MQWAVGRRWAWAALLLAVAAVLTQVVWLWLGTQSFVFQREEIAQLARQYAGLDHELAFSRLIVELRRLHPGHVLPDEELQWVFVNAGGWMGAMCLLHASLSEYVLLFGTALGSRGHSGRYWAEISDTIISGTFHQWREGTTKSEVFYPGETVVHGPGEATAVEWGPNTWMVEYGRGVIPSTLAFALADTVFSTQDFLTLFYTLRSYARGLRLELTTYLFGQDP
- experimentalProtocol: Displacement of [3H]-pentazocine from sigma-1 receptor in human Jurkat cell membrane incubated for 2 hr by liquid scintillation counting method
Note: values are log10 of Ki expressed in µM.

CC(C)n1nc(CN2CCCC2)nc1-c1ccc(C(C)(C)C)cc1 ... -2.66
Cn1nc(CN2CCCC2)nc1-c1ccc(C(C)(C)C)cc1 ... -2.12
Cn1nc(CN2CCCC2)nc1-c1ccc(-c2ccccc2)cc1 ... -1.05
Cn1nc(CN2CCCC2)nc1-c1ccc2ccsc2c1 ... -1.19
CC(C)c1ccc(-c2nc(CN3CCCC3)nn2C)cc1 ... -1.02
Cn1nc(CN2CCCC2)nc1-c1cccc(C(C)(C)C)c1 ... -1.54

Problem: Tell us which log10 Ki value is on record for `Cn1nc(CN2CCCC2)nc1-c1ccc(C2CCCCC2)cc1`
Result: -1.70

Problem: Tell us which log10 Ki value is on record for `Cn1nc(CN2CCN(CCc3ccccc3)CC2)nc1-c1ccc(C(C)(C)C)cc1`
Result: -1.31

Problem: Tell us which log10 Ki value is on record for `Cn1nc(CN2CCCC2)nc1-c1ccc(C(F)(F)F)cc1`
Result: -1.09

Problem: Tell us which log10 Ki value is on record for `Cn1nc(CN2CCCC2)nc1-c1ccc2c(c1)CCCC2`
Result: -1.59

====

- experimentalProtocol: Tmax in Sprague-Dawley rat plasma at 10 mg/kg, ip measured after 0.25 to 4 hrs by LC-MS/MS analysis
- Type: ADME, organism-based
- measurementParameters: time 0.25-4 hrs
testReadout: Tmax
Give the figure together with its unit, number first.

Problem: Tell us which Tmax value is on record for `Cn1nc(CN2CCCC2)nc1-c1ccc(C(C)(C)C)cc1`
Result: 15 min

====

- target: Sigma non-opioid intracellular receptor 1 (Cavia porcellus, UniProt Q60492)
- Sequence (Q60492 whole entry): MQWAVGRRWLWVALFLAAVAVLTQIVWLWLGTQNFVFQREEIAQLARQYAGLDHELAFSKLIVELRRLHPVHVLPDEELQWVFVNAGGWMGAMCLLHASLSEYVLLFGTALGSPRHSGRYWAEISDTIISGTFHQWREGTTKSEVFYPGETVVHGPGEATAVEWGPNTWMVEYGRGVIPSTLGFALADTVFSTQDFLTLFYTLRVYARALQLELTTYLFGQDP
- experimentalProtocol: Displacement of [3H]-(+)-pentazocine from sigma-1 receptor in guinea pig brain membranes incubated for 1 hr by liquid scintillation counting method
- Assay type: cell membranes, Membrane
testReadout: pKi
Note on pKi: it is the negative log10 of concentration, concentration in mol/L.

COc1ccc2c(c1)[C@]13CCCC[C@@H]1[C@H](C2)N(C)CC3 ... 7.20

Problem: Tell us which pKi value is on record for `Cn1nc(CN2CCN(c3ccccc3)CC2)nc1-c1ccc(C(C)(C)C)cc1`
Result: 7.85

Problem: Tell us which pKi value is on record for `Cc1cc(OCCN2CCOCC2)nn1-c1ccc2ccccc2c1`
Result: 8.52

Problem: Tell us which pKi value is on record for `Cn1nc(CN2CCCC2)nc1-c1ccc(C(C)(C)C)cc1`
Result: 8.57

Problem: Tell us which pKi value is on record for `Cn1nc(CN2CCN(CCc3ccccc3)CC2)nc1-c1ccc(C(C)(C)C)cc1`
Result: 8.00
